Value source: PubChem BioAssay (NCATS)

Test: qHTS for Inhibitors of the Functional Ribonucleoprotein Complex (vRNP) of Lymphocytic Choriomeningitis Arenaviruses (LCMV): Viability assay - alamar blue signal for LCMV Primary Screen (AID 1347085); note: % is set by controls: 0 for no effect and ±100 for the full control effect; nearly all actives have a fitted effect of over 80% in size
Settings: alamar blue viability counter-screen, LCMV vRNP screen cells; series mostly up to 57.5 µM
Inconclusive results are not listed. Calls of active or inactive are those of the source. Calls come from the whole dose curve; tested in HEK293 reporter line.
Classes to choose from: t (active), f (inactive)

query: Which result was noted for this compound in the test: CC(C)C(C)(C)C(C)(C)C(C)(C)S
result: f

###

Assay: Cell Viability - LYMP2-024 (AID 988);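 note: cells exposed to compound for 24 hr at 37 °C; plate controls were DMSO only for no effect and 92 µM tetraoctylammonium bromide for full effect; nearly all actives have a fitted effect of over 60% in size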
Conditions: LYMP2-024 lymphoblastoid cell viability; series mostly up to 92.2 µM
Records with an inconclusive call do not appear. Calls of active or inactive are those of the source. The call rests on the fitted dose curve; in most records, active means well fitted cell-killing curve with a large enough effect; inconclusive means small, poorly fitted or top-dose-only effect; inactive means flat fitted curve, though single readings scatter.
reported-endpoint: outcome

{"item-smiles": "O=[N+]([O-])c1c(Cl)c(Cl)cc(Cl)c1Cl", "test-result": "inactive"}
{"item-smiles": "O=C(O)COc1ccccc1", "test-result": "inactive"}
{"item-smiles": "O=S(=O)(c1ccc(Cl)cc1)c1ccc(Cl)cc1", "test-result": "inactive"}

###

Assay: Quantitative High-Throughput drug screen in 47 multiple myeloma cell lines against the NCATS MIPE library collection: Karpas417_ECACC cell viability assay (AID 1918961); note: potency is the fitted concentration of half-maximal effect
Conditions: Karpas417 myeloma viability, CellTiter-Glo ATP luminescence, 48 h
Text: PI: Beverly A. Mock Ph.D. Laboratory of Cancer Biology and Genetics, Center for Cancer Research, National Cancer Institute, National Institute of Health, Bethesda, Maryland […] 5; Detector; 425V; Luminescence; Viewlux PerkinElmer. […] 1. […] Briefly, the corresponding myeloma cell lines were screened in 1,536-well plates with 500 cells, 5-uL per well for inhibition of cell viability (assessed by measuring ATP levels with CellTiterGlo). […]
Records with an inconclusive call do not appear. Calls of active or inactive are those of the source. The call rests on the fitted dose curve; in most records, active means well fitted cell-killing curve with a large enough effect; inconclusive means small, poorly fitted or top-dose-only effect, or effect the other way; inactive means no such curve, though single readings can be large or run the other way.
reported-endpoint: Potency

Some entries whose results are on file:
{"molecule": "C[C@](O)(COc1ccc(C#N)cc1)C(=O)Nc1ccc(C#N)c(C(F)(F)F)c1", "test-result": "23.5 µM (active)"}
{"molecule": "C[C@H]1CCCC=CC2C[C@H](O)C[C@@H]2[C@H](O)C=CC(=O)O1 (some centres not stated)", "test-result": "inactive"}
{"molecule": "CCOC(=O)Nc1ccc(NCc2ccc(F)cc2)cc1N", "test-result": "inactive"}
{"molecule": "CC(C)N(CCNC(=O)CN1CCCC1=O)C(C)C", "test-result": "inactive"}

query: Name the recorded Potency for CC(=O)N(C)c1cccc(-c2ccnc3c(C(=O)c4cccs4)cnn23)c1 .
result: 23.5 µM (active)

query: Bench note: what Potency did CCNC(=O)CC1N=C(c2ccc(Cl)cc2)c2cc(OC)ccc2-n2c(C)nnc21 (configuration not stated) show?
result: 4.18 µM (active)

query: Consider the molecule CC(C)N[C@@H]1CCn2c(=O)[nH]c3cccc(c32)[C@@H]1O and give its measured Potency.
result: 1.05 µM (active)

###

Tested on: HEK293
Assay: Cytotoxic Profiling of Annotated Libraries Using Quantitative High-Throughput Screening (AID 1296008); note: % is set by controls: 0 for no effect and ±100 for the full control effect; nearly all actives have a fitted effect of over 60% in size
Settings: Five cell lines viability, CellTiter-Glo ATP luminescence, 48-72 h; active compounds read low
Inconclusive results are not listed. Calls of active or inactive are those of the source. Calls follow the shape of the dose curve; as a rule, active = well fitted inhibition curve with a large enough effect; inconclusive = small, poorly fitted or top-dose-only effect; inactive = flat fitted curve, though single readings scatter.
reported-endpoint: max response

{"compound": "O=C(Oc1ccc([N+](=O)[O-])cc1)N1CCN(Cc2cccc(Oc3ccccc3)c2)CC1", "max response": "1.27% (inactive)"}

query: Value lookup for max response; key = CC(Cc1ccc(O)cc1)NCC(O)c1cc(O)cc(O)c1 (centres undefined)
result: -1.83% (inactive)

query: Sample C[C@@H]1[C@H](O)[C@@H](C)C=CC=CCCC=CC=CC=CC=C[C@H](O[C@H]2O[C@@H](C)[C@H](O)[C@@H](N)[C@@H]2O)CC2O[C@](O)(C[C@@H](O)[C@H](O)CC[C@@H](O)C[C@@H](O)C[C@@H](O)CC(=O)O[C@H]1C)C[C@H](O)[C@H]2C(=O)O — what was its max response?
result: 2.42% (inactive)

query: Field request: max response | item: CC(C)[C@]12O[C@@H]1[C@@H]1O[C@]13[C@]1(O[C@H]1C[C@@H]1C4=C(CC[C@@]13C)C(=O)OC4)[C@H]2O
result: -111% (inactive)
